Test system: TRPC4 beta (transient receptor potential cation channel C4), mouse
TEST_PROTOCOL: activators of mouse TRPC4 channel, confirmation, cell-based, Fluo4 calcium, HEK293 TRPC4beta/mu-opioid, duplicates, 10 µM (AID 2426)
PARTICULARS: Fluo4 calcium fluorescence, at 10 µM
The source made the active and inactive calls.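 Rule for the calls: active = fluorescence ratio normalized to control raised more than 50% in primary screen plus both repeat runs; inactive = the rest.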
Outcome codes: active, inactive

MOLECULE: Cc1ccc(S(=O)(=O)NCCC(=O)NCC(c2ccco2)N2CCCCC2)cc1C (stereo not given)
GROUP_LABEL: active

MOLECULE: CN(C)C(CNC(=O)C1CC(=O)N(Cc2ccccc2)C1)c1ccccc1 (stereo not given)
GROUP_LABEL: active

MOLECULE: O=C(C1CCCN(Cc2ccncc2)C1)N1CCc2ccccc2C1 (stereo not given)
GROUP_LABEL: active

MOLECULE: CCOc1ccccc1N(CC(=O)N1CCOCC1)S(=O)(=O)c1ccccc1
GROUP_LABEL: active

MOLECULE: CC1Cc2ccccc2N1C(=O)CSc1nc2c(c(=O)n(C)c(=O)n2C)n1Cc1ccccc1 (stereo not given)
GROUP_LABEL: active

MOLECULE: Cc1ccc2oc(=O)c3cnn(CC(=O)NC4CCN(Cc5ccccc5)CC4)c3c2c1
GROUP_LABEL: active

MOLECULE: CCN1CCN(c2c(Cl)cccc2NC(=O)c2ccc3nsnc3c2)CC1
GROUP_LABEL: active

MOLECULE: CN(C)CCCN(C(=O)c1ccc(S(=O)(=O)N2CCCc3ccccc32)cc1)c1nc2ccc(F)cc2s1
GROUP_LABEL: active

MOLECULE: CCC1(c2ccc(F)cc2)NC(=O)N(CC(=O)c2cc(C)n(C3CC3)c2C)C1=O (stereo not given)
GROUP_LABEL: inactive

MOLECULE: O=C(c1sc2ccccc2c1Cl)N(Cc1ccco1)C1CCS(=O)(=O)C1 (stereo not given)
GROUP_LABEL: active
